meta.source: patent US20210403601A1

systemUnderTest: T1, Taq DNA polymerase (Thermus aquaticus, UniProt P19821 1-832)
T1 construct: also called Taq enzyme; Taq DNA enzyme
T1 sequence (P19821 whole entry): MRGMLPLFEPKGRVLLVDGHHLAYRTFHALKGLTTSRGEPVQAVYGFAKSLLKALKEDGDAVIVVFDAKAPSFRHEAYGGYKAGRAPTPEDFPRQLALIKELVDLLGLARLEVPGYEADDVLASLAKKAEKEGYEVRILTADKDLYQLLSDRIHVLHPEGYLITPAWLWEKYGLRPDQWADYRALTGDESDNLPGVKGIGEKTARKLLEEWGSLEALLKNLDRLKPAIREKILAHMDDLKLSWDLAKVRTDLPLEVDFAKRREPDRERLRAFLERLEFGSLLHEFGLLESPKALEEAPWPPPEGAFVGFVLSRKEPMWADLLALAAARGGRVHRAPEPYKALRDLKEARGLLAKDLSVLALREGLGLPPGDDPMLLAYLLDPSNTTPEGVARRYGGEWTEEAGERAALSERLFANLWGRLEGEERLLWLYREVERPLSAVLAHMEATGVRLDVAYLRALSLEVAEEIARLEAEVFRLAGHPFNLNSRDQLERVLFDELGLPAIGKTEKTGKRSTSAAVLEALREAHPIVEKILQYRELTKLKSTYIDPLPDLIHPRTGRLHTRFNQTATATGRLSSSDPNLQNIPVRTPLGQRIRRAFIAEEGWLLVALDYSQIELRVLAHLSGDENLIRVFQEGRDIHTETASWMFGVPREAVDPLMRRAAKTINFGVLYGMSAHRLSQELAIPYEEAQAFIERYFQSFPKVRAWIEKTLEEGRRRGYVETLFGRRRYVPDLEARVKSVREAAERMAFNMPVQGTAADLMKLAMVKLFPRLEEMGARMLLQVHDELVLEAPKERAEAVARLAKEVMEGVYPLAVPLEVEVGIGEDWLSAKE
assayRemarks: AMC sensor, antibody immobilised
Reported koff values for the following binders.
Just the number please, in s⁻¹, no unit attached.

[[record]]
binder = "Mutation 1-22 (antibody, V domains shown, Mutation 1 background; CDRs built) VH: QVQLQQPGAELVKPGASVRLSCQTSVNTFTTYYIYWVKQRPGEGLEWIGGINPTSGGPVFNEKFKSKATLTVDTSSSTAYMQLSSLTSVDSAVYYCTRSVVRRGYYFDYWGQGTALTVSS VL: DIQMTQTTSSLSASLGDRVTISCRASQDIQNYINWYQQKPDGTIKLLIYYTSRLHSGVPSRFSGSGSGTDYSLTIANLEQEDIATYFCQQDDTVPITFGAGTKVELKR"
readoutname = "koff"
valueunit = "s⁻¹"
measurement = "3.7e-05"

[[record]]
binder = "Mutation 1-34 (antibody, V domains shown, Mutation 1 background; CDRs built) VH: QVQLQQPGAELVKPGASVRLSCQTSVDTFSTYYIYWVKQRPGEGLEWIGGLNPTSGGPVFNEKFKSKATLTVDTSSSTAYMQLSSLTSVDSAVYYCTRSLVRRGYYFDYWGQGTALTVSS VL: DIQMTQTTSSLSASLGDRVTISCRASQDIQNYINWYQQKPDGTIKLLIYYTSRLHSGLPSRFSGSGSGTDYSLTIANLEQEDIATYFCQQDDTLPITFGAGTKVELKR"
readoutname = "koff"
valueunit = "s⁻¹"
measurement = "6.17e-05"


Tell me the measured koff of Mutation 1-8 (antibody, V domains shown, Mutation 1 background; CDRs built) VH: QVQLQQPGAELVKPGASVRLSCQTSVETFSTYYIYWVKQRPGEGLEWIGGLNPTSNPVFNEKFKSKATLTVDTSSSTAYMQLSSLTSVDSAVYYCTRSLIRRGYYFDYWGQGTALTVSS VL: DIQMTQTTSSLSASLGDRVTISCRASQDIQNYLNWYQQKPDGTIKLLIYYTSRLNSGLPSRFSGSGSGTDYSLTIANLEQEDIATYFCQQDDTLPLTFGAGTKVELKR , please.
1.64e-06
